Each item that follows carries a reported melting point.

These recorded examples may help you get a feel for the data.
{"COMPOUND": "Cc1ccc(F)cc1NC(=O)CN1CCNC(CO)C1 (centres undefined)", "melting point": "128 °C"}
{"COMPOUND": "COc1ccc(-n2nc(-c3c(-c4ccccc4)nn4ccccc34)ccc2=O)cc1", "melting point": "158 °C"}
{"COMPOUND": "CC(=O)CCCN1C(=O)c2ccccc2S1(=O)=O", "melting point": "90 to 93 °C"}
{"COMPOUND": "N#Cc1cnc2cc(-c3cc(CN4CCOCC4)c(CN4CCOCC4)s3)ccc2c1Nc1ccc(Cl)cc1Cl", "melting point": "118 to 125 °C"}
{"COMPOUND": "O=c1c2ccccc2oc2cc(OCC3CO3)cc(O)c12 (centres undefined)", "melting point": "197 °C"}
{"COMPOUND": "CC(C)Oc1cc(COc2cc(CCC(=O)O)n(C)n2)cc(COc2ccc(Cl)cc2Cl)c1", "melting point": "105 to 106 °C"}
{"COMPOUND": "COc1ccccc1NC(=O)Nc1ccc(CC(=O)OC(C)(C)C)cc1C", "melting point": "157 to 158 °C"}
{"COMPOUND": "CC(C)S(=O)(=O)c1cc(OCCc2ccccn2)c2[nH]nc(Nc3ncc(CN4CCOCC4)s3)c2c1", "melting point": "> 190 °C"}
{"COMPOUND": "CON1CCC(=Cc2cc(C(C)(C)C)c(O)c(C(C)(C)C)c2)C1=O", "melting point": "169 °C"}
{"COMPOUND": "NC(=O)C1CCCc2c1c1cc(OCCCP(=O)(O)O)ccc1n2Cc1ccccc1 (centres undefined)", "melting point": "200 to 201 °C"}

q: Kindly indicate its recorded melting point. Item: `CC[C@H](NC(=O)OC(C)(C)C)c1nc2c(C(F)(F)F)cccc2c(=O)o1`
a: 136 to 138 °C

q: Kindly indicate its recorded melting point. Item: `O=S(=O)(Cl)c1ccccc1Cn1cncn1`
a: 180 to 195 °C

q: Kindly indicate its recorded melting point. Item: `O=C(c1cccc([N+](=O)[O-])c1)n1nc(O)c2ccccc21`
a: 232 to 234 °C

q: Kindly indicate its recorded melting point. Item: `COC(=O)CCCNC(=O)C[C@H]1O[C@H](c2cccc(OC)c2OC)c2cc(Cl)ccc2N(CC(C)(C)C)C1=O`
a: 74 to 75 °C

q: Kindly indicate its recorded melting point. Item: COc1ccc(N2CCN(c3c(C)c(C)c4c(c3C)C(O)(c3ccco3)C(C)(C)O4)CC2)cc1 (centres undefined)
a: 111 to 112 °C

q: Kindly indicate its recorded melting point. Item: CCOC(=O)C1=C(C)N(CCOC(=O)c2ccccc2)C(=O)NC1c1ccc(OC)cc1 (centres undefined)
a: 75 °C

q: Kindly indicate its recorded melting point. Item: `COc1ccc2c(-c3ccccc3F)noc2c1C`
a: 105 to 108 °C

q: Kindly indicate its recorded melting point. Item: `CCCCOc1cc(C(=O)O)cc(N)c1-c1ccccc1`
a: 122 to 124 °C

q: Kindly indicate its recorded melting point. Item: `Cc1cc(C(C)(C)CO)c(Cl)nn1`
a: 151 to 153 °C

====

Each item that follows carries a reported melting point.

These recorded examples may help you get a feel for the data.
{"COMPOUND": "CCOC(=O)c1cc2c(O)nncc2nc1NC", "melting point": "290 to 292 °C"}
{"COMPOUND": "C/C=C/C1CCC2c3ccc(OCC)c(F)c3OC2C1 (stereo unspecified)", "melting point": "145 °C"}

q: Kindly indicate its recorded melting point. Item: `COc1cc(C=O)cc(-c2cc3c(cc2F)c(=O)c(C(=O)O)cn3C2CC2)c1OC`
a: > 230 °C

q: Kindly indicate its recorded melting point. Item: `CS(=O)(=O)Nc1ccc(OC(=O)c2ccc(CCBr)cc2)cc1`
a: 161 to 162 °C

q: Kindly indicate its recorded melting point. Item: `OCCCc1oc(-n2cncn2)nc1-c1ccc(Cl)cc1`
a: 139 to 140 °C

q: Kindly indicate its recorded melting point. Item: `O=C(CN1c2nc(-c3ccncc3)cc(=O)n2CCC12CC2)c1ccccc1`
a: 232 to 234 °C

q: Kindly indicate its recorded melting point. Item: `CC(=O)CCNc1ccc(-c2cc(-c3ccc(C(=O)O)cc3)ccc2OCCCCO)cc1C(C)(C)C`
a: 75 °C

q: Kindly indicate its recorded melting point. Item: `c1ccc(CN2CCN(Cc3cc4ccccc4[nH]3)CC2)cc1`
a: 157 to 159 °C

q: Kindly indicate its recorded melting point. Item: CC(C)=NNc1ccc(OCC(C)(C)NCC(O)COc2ccccc2C#N)nn1 (stereo unspecified)
a: 126 to 128 °C

q: Kindly indicate its recorded melting point. Item: `COc1ccccc1CC(=O)Nc1cc(Cl)c(Cl)cc1[N+](=O)[O-]`
a: 123 to 125 °C

q: Kindly indicate its recorded melting point. Item: `CCC(C)(C)c1cc(-c2ccc(C=C3SC(N4CCOCC4)=NC3=O)s2)ccc1O`
a: 322 to 323 °C
